Test system: L1210 leukemia ip in BDF1 mice, survival T/C
Assay: NCI In Vivo Anticancer Drug Screen. Data for tumor model L1210 Leukemia (intraperitoneal) in B6D2F1 (BDF1) mice
Conditions: endpoint: mean survival time; dose: 25.0 mg/kg/injection; schedule: Q01DX009 (ip); vehicle: Klucel (hydroxypropylcellulose) (HPC); higher = longer survival
Inconclusive results and toxic doses are left out.
QUANTITY: T/C

Example entries and their recorded answers appear below.
>  <LINE NOTATION>
O=[N+]([O-])c1cc(S(=O)(=O)c2ccc(Cl)c([N+](=O)[O-])c2)ccc1Cl

>  <T/C>
92 % of control

$$$$
>  <LINE NOTATION>
CCCCOc1ccc(C=Nc2ccc(C)cc2)cc1

>  <T/C>
109 % of control

$$$$
>  <LINE NOTATION>
CN1CCN(C(c2ccccc2)c2ccccc2)CC1

>  <T/C>
108 % of control

$$$$
>  <LINE NOTATION>
Cc1cc(C(=O)NNCc2ccccc2)no1

>  <T/C>
96 % of control

$$$$

input: Reported T/C for "O=C1C=CC(=Nc2cc(Cl)c(O)c(Cl)c2)C(Cl)=C1" : what is it?
output: 96 % of control

Values were extracted from PubChem BioAssay AID248.
